Recorded cytotoxicity at 70.5 h values for a group of compounds are listed next.
protocol_text: Human HepG2 cell viability assay in 384 well format
Type: toxicity, cell-based
Design: dose 125 nL, time 70.5 hour; concentration not given beside the values
assay_conditions: HepG2 cells, read-out: Inhibition
Write the value in % as a bare number.

What value of cytotoxicity at 70.5 h has been reported for the following compound? COc1ccc(OC)c(CN2CCCCCC2c2cccs2)c1 (centres undefined)
31.6

# query: cytotoxicity at 70.5 h of entry COCC1CN(C(=O)Nc2ccc(Cl)cc2Cl)CCO1 (centres undefined)
-8.42

Could you share which cytotoxicity at 70.5 h value was measured for `Cc1cc(NC(=O)CCN2CCn3c(C)nnc3C2)no1` ?
-8.82

Please give the measured cytotoxicity at 70.5 h for this compound: CCc1cc(NC(=O)C(c2cccc(F)c2)N2CCOCC2)[nH]n1 (centres undefined)
-4.49

Name the reported cytotoxicity at 70.5 h value associated with the compound CNC(=O)C1Cn2ccnc2C2(CCN(Cc3nccs3)CC2)O1 (centres undefined)
10.7

What value of cytotoxicity at 70.5 h has been reported for the following compound? `CC(=O)Nc1ccsc1C(=O)N1CC[C@@H]2CC[C@H](C1)N2C`
-6.78

Which measured cytotoxicity at 70.5 h value corresponds to `O=C(Nc1cccc(CN2CCOC2=O)c1)N1CCCCCC1` ?
35.8

* * *

protocol_text: Human HepG2 cell viability assay in 384 well format
Assay type: toxicity, cell-based
Design: dose 125 nL, time 70.5 hour; concentration not given beside the values
assay_conditions: HepG2 cells, read-out: Inhibition
endpoint_name: cytotoxicity at 70.5 h

COCC(=O)Nc1cnc(N2CCOCC2)nc1: -3.21%

Quick one: cytotoxicity at 70.5 h for `O=S(=O)(Nc1nccs1)c1cc(Cl)cc2c1OCC2` ?
2.51%

Consider the compound shown here: `CN1CC[C@H](c2ccccc2)[C@@H]2[C@H]1CCCCN2C(=O)c1cnccn1` What is its recorded cytotoxicity at 70.5 h?
-8.44%

Item `CCOc1ccccc1Oc1ccc(CN)cn1` has what recorded cytotoxicity at 70.5 h?
-7.48%

What measured cytotoxicity at 70.5 h goes with Cc1cccc(C(=O)N2CC(C(=O)NCC3CC3)C3(CCOCC3)C2)n1 (stereo unspecified) ?
-2.96%

Fill in: cytotoxicity at 70.5 h of O=C(N1CCCCC1)N1CCCC1c1nnc2n1CCNC2 (stereo unspecified) is ___
17.6%

* * *

Measured cytotoxicity at 70.5 h accompanies every entry in the list below.
protocol_text: Human HepG2 cell viability assay in 384 well format
Assay type: toxicity, cell-based
Design: dose 125 nL, time 70.5 hour; concentration not given beside the values
assay_conditions: HepG2 cells, read-out: Inhibition
// return numeric value only (unit: %, not printed)

Past entries and their recorded results:
Cc1cc(CN2CCC(CNC(=O)CN3CCCCCC3)C2)[nH]n1 (stereo not given): 14.2
COc1ccccc1N1CCN(Cc2ncc(C)c(OC)c2C)CC1=O: -6.77
CC(C)(O)CN1CCN(C(=O)C2CSc3ccccc3O2)CC1 (stereo not given): -14.7
Cc1ccc(C(=O)NC2CCN(C)CC2)cc1N(C)S(C)(=O)=O: -6.98
O=C(Cn1c(=O)oc2ccccc21)N1Cc2cnn(CCO)c2C1: -2.5

So what does the record say about cytotoxicity at 70.5 h for `CN(C)C(=O)c1cn[nH]c1C1(C)CCN(c2ncccn2)CC1` ?
2.96

Sample Cc1ccc(S(=O)(=O)NCC2CNCCOC2)cc1Cl (stereo not given) — what was its cytotoxicity at 70.5 h?
-2.6

Which cytotoxicity at 70.5 h is listed for O=C(C1CN(Cc2ccsc2)Cc2ccnn2C1)N1CCCC1 (stereo not given) ?
2.84

Item under review: `c1ccc(CN2CC[C@H]3[C@H]2CCN3c2ncccn2)nc1` . Reported cytotoxicity at 70.5 h?
-5.09

Would you mind telling me what cytotoxicity at 70.5 h value was observed for CCN(CC)C(CNS(=O)(=O)c1ccc(C(=O)NC)cc1)c1ccco1 (stereo not given) ?
-8.07

Would you kindly share the measured cytotoxicity at 70.5 h for CC(Sc1nncn1C)C(=O)NCCCOc1ccc(F)cc1 (stereo not given) ?
-22.5

GET /values?readout=cytotoxicity at 70.5 h&item= `CCC[C@@H]1CN(C(=O)c2cc(-c3cccs3)n(C)n2)C[C@H]1NS(C)(=O)=O`
-4.08

State the recorded cytotoxicity at 70.5 h for this entry: `Cc1c(I)cccc1C(=O)NCc1ncc[nH]1`
-0.0896

Query (compound): `CN(CC(=O)N1CC(C)(C)[C@@](C)(O)C1)Cc1ccncc1` ; field requested: cytotoxicity at 70.5 h
-6.29

Which cytotoxicity at 70.5 h is reported for this compound? Cc1n[nH]c(C)c1CNC(=O)NC1CCCN(c2ccccc2F)C1 (stereo not given)
6.33

Record request: cytotoxicity at 70.5 h value, item `CN1CC[C@H]2CN(C(=O)c3csc(Cc4ccccc4)n3)C[C@H]21`
-5.61

// lookup cytotoxicity at 70.5 h for `CC1=N[C@@]2(CC[C@@H]3CN(S(=O)(=O)CC(C)C)C[C@@H]32)C(=O)N1CC1CC1`
8.18

What does the data say about its cytotoxicity at 70.5 h? Entry: CCOC(=O)C(C)Nc1cccc(COCc2ccco2)c1 (stereo not given)
-1.34

Given the entry O=C(c1ccc[nH]1)N1CCO[C@H]2CC(COCc3ccccn3)C[C@@H]21 (stereo not given in full) , report its measured cytotoxicity at 70.5 h.
2.76

Value lookup for cytotoxicity at 70.5 h; key = `O=C(NCCS(=O)(=O)N1CCc2ccccc21)c1c(O)cc(F)cc1F`
-2.02

Find the recorded cytotoxicity at 70.5 h belonging to `CCNC(=O)Cc1ccc(-c2cccc3c2CCNC3)cc1` and report it.
-17.3

Using the record for Cn1ncc2c(=O)[nH]c(CN3CCCC3Cc3ccccc3)nc21 (stereo not given) , report its cytotoxicity at 70.5 h.
-13.7

Give the measured cytotoxicity at 70.5 h of CC(C)N1CCCC(C(=O)N2CCN(c3cccc(C(=O)O)c3)CC2)C1 (stereo not given) .
23.2

// lookup cytotoxicity at 70.5 h for COc1ccc(C(=O)N2CCCC(CNS(C)(=O)=O)C2)cc1F (stereo not given)
-10.9

I have this compound here, Cc1ccc(C(=O)N2CCC3(CC2)CC(c2ccccc2)C(=O)N3)o1 (stereo not given) , and I need its recorded cytotoxicity at 70.5 h.
-5.53

cytotoxicity at 70.5 h for Cc1cccc(CN2CCOCC2c2[nH]ncc2C)n1 (stereo not given) ?
-2.39

What measured cytotoxicity at 70.5 h goes with `CCn1nc(C)cc1C(=O)N1C[C@@H]2C[C@@H](c3noc(C)n3)O[C@@H]2C1` ?
-6.34

# lookup: cytotoxicity at 70.5 h of `CC(C)N1CCC(Cc2cc(-c3cccc(C(=O)O)c3)ncn2)CC1`
-4.63

What measured cytotoxicity at 70.5 h goes with `O=C(c1ccccn1)N1CCC(Cc2cnc3[nH]ccc3c2)CC1` ?
-6.64

Any idea what its cytotoxicity at 70.5 h is? The compound is CC(Cc1ccc2c(c1)OCO2)c1cn(CCc2c[nH]cn2)nn1 (stereo not given)
-6.47

Looking for the measured cytotoxicity at 70.5 h of CCCS(=O)(=O)CC(=O)N1CCCC1c1noc(C2CC2)n1 (stereo not given) , can you help?
-17.8
